test: Quantitative High-Throughput drug screen in 47 multiple myeloma cell lines against the NCATS MIPE library collection: U266_ATCC cell viability assay (AID 1919864); details: U266 myeloma viability, CellTiter-Glo ATP luminescence, 48 h; series mostly up to 45.8 µM; also: nearly all actives have a fitted effect of over 35% in size
Inconclusive results are not listed. Calls of active or inactive are those of the source. Calls follow the shape of the dose curve; as a rule, active = well fitted cell-killing curve with a large enough effect; inconclusive = small, poorly fitted or top-dose-only effect, or effect the other way; inactive = no such curve, though single readings can be large or run the other way.
Outcomes: active, inactive

> print(dat)
                                    molecule  discrete.label
 1  Cc1ccc(C(=O)N(CCCN)[C@@H](c2oc3cc(Cl)ccc3c(=O)c2Cc2ccccc2)C(C)C)cc1          active
 2  O=C(CC12CC3CC(CC(C3)C1)C2)Nc1cccc2nc(NCCNCCO)ccc12          active
 3  CCCCCCCCCCCCCC(=O)N[C@H](CO)[C@H](O)c1ccc([N+](=O)[O-])cc1        inactive
 4  CCC(=C(c1ccc(O)cc1)c1ccc(OCCNC)cc1)c1ccccc1          active
 5  O=C(CO)N1CCC(c2[nH]nc(-c3ccc(Cl)cc3)c2-c2ccncn2)CC1        inactive
 6  CC(C)CN(C[C@@H](O)[C@H](Cc1ccccc1)NC(=O)O[C@H]1CO[C@H]2OCC[C@H]21)S(=O)(=O)c1ccc(N)cc1          active
 7  C=CC[N+]1([C@H]2C[C@H]3[C@@H]4CC[C@H]5C[C@H](O)[C@@H](N6CCOCC6)C[C@]5(C)[C@@H]4CC[C@]3(C)[C@H]2OC(C)=O)CCCC1        inactive
 8  CCCCCOC(=O)Nc1nc(=O)n([C@@H]2O[C@H](C)[C@@H](O)C2O)cc1F (some centres not stated)        inactive
 9  C[C@]12C=CC(=O)C=C1CC[C@@H]1[C@@H]2[C@@H](O)C[C@@]2(C)[C@@H]1CC[C@]2(O)C(=O)CO        inactive
10  CCCC1OC2C[C@@H]3[C@H]4CCC5=CC(=O)C=C[C@]5(C)[C@H]4C(O)C[C@]3(C)[C@]2(C(=O)CO)O1 (some centres not stated)          active
11  c1cc(OCCN2CCCCC2)cc(-c2n[nH]c3ccc(-c4ncn[nH]4)cc23)c1          active
12  CC1(C)C(N(O)C(=O)Nc2ccc(Cl)cc2)N(c2ccc(Cl)cc2)C(=O)N1CC(=O)NN=CC=Cc1ccc([N+](=O)[O-])o1 (configuration not stated)          active
13            Fc1ccc(CNc2ncnc3ccc(F)cc23)cc1          active
14  CN1CCN(c2ncc(-c3cc(Cl)cc(Cl)c3Cl)c(N)n2)CC1          active
15  CC(C)C[C@H](NC(=O)c1cc2ccccc2s1)C(=O)N1CCN(C(=O)[C@H](CO)NS(=O)(=O)c2ccc(Cl)cc2Cl)CC1          active
16  O=S(=O)(NCCNCC=Cc1ccc(Br)cc1)c1cccc2cnccc12          active
17  CC(C)n1c(C=C[C@H](O)C[C@H](O)CC(=O)O)c(-c2ccc(F)cc2)c2ccccc21          active

---

assay: Identifying Small Molecule Inhibitors of Pancreatic Cancer Stem Cells (A2780, Spheroid) (AID 1259357); conditions: A2780 spheroid viability; series mostly up to 46.1 µM;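 also: spheroids pre-formed over 14 days in stem cell medium on hydrogel; compound exposure lasted 48 h before the ATP luminescence read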
Records with an inconclusive call do not appear. Activity calls are given as the source filed them. The call rests on the fitted dose curve; in most records, active means well fitted cell-killing curve with a large enough effect; inconclusive means small, poorly fitted or top-dose-only effect, or effect the other way, or another doubt; inactive means no such curve, though single readings can be large or run the other way.
Labels: active, inactive

Compound	Discrete Label
O=C1C(CCC(O)c2ccc(F)cc2)C(c2ccc(O)cc2)N1c1ccc(F)cc1 (centres undefined)	inactive
Cc1cccc(Nc2nc(N[C@@H]3CCCC[C@H]3N)ncc2C(N)=O)c1	inactive
CC1=C[C@@H]2[C@@H]([C@@H](O)C[C@@]3(C)[C@H]2C[C@@H](C)[C@]3(O)C(=O)CO)[C@@]2(C)Cc3cnn(-c4ccccc4)c3C=C12	inactive
Nc1ccc(-c2ccc3ncc4ccc(=O)n(-c5cccc(C(F)(F)F)c5)c4c3c2)cn1	active
C[C@@H](O[C@H]1OCCN(Cc2n[nH]c(=O)[nH]2)[C@@H]1c1ccc(F)cc1)c1cc(C(F)(F)F)cc(C(F)(F)F)c1	active
Cc1cc2c(cc1C1(c3ccc(C(=O)O)cn3)CC1)C(C)(C)CCC2(C)C	inactive
CC(=O)NCCC(=O)N[C@@H](CCC(N)=O)C(=O)N[C@@H](CO)C(=O)N[C@@H](CCC(N)=O)C(=O)N[C@@H](CCC(N)=O)C(=O)N[C@H](C(=O)N[C@@H](Cc1ccccc1)C(=O)N[C@]1(C)CCCCCCC=CCCC[C@@](C)(C(=O)N[C@@H](CCC(N)=O)C(=O)N[C@@H](CC(N)=O)C(N)=O)NC(=O)[C@H](CC(C)C)NC(=O)[C@H](CC(C)C)NC(=O)[C@@H](CCCNC(=N)N)NC(=O)[C@H](Cc2c[nH]c3ccccc23)NC(=O)[C@H](CC(C)C)NC(=O)[C@H](CC(N)=O)NC1=O)[C@H](C)O	inactive
CN1C(=O)C(Cc2c[nH]c3ccccc23)NC1=S (centres undefined)	inactive
COc1cccc(OC)c1-c1cc(C(=O)NC2(C(=O)O)C3CC4CC(C3)CC2C4)nn1-c1ccnc2cc(Cl)ccc12 (centres undefined)	inactive

---

assay: Quantitative High-Throughput drug screen in 47 multiple myeloma cell lines against the NCATS MIPE library collection: Karpas620_DSMZ cell viability assay (AID 1918959); details: Karpas620 myeloma viability, CellTiter-Glo ATP luminescence, 48 h; series mostly up to 45.8 µM; also: nearly all actives have a fitted effect of over 30% in size
Inconclusive results are not listed. Calls of active or inactive are those of the source. The call rests on the fitted dose curve; in most records, active means well fitted cell-killing curve with a large enough effect; inconclusive means small, poorly fitted or top-dose-only effect, or effect the other way; inactive means no such curve, though single readings can be large or run the other way.
Labels: active, inactive

Molecule	Discrete Label
CN(C)S(=O)(=O)c1ccc2c(c1)C(=Cc1cc3c([nH]1)CCCC3)C(=O)N2	active
CCC[C@H](N[C@@H](C)C(=O)N1[C@@H]2CCCC[C@H]2C[C@H]1C(=O)O)C(=O)OCC	inactive
CC(=O)N1CCN(c2ccc(OCc3nn(C)c(C)c3-c3cccc4c(CCCOc5cc(C)c(Cl)c(C)c5)c(C(=O)O)n(Cc5cccnc5)c34)cc2)CC1	active
COc1ccc2ccc(=O)oc2c1CC=C(C)C	active
COc1ccc(CCN(C)CCCOc2ccc(S(=O)(=O)c3[nH]c4ccccc4c3C(C)C)cc2)cc1OC	inactive
Fc1ccc(C(c2ccc(F)cc2)N2CCN(CC=Cc3ccccc3)CC2)cc1	inactive
CCC(=O)N1CCN(c2ccc(-n3c(=O)ccc4cnc5ccc(-c6cnc7ccccc7c6)cc5c43)cc2C(F)(F)F)CC1	active
CCCCCCCCCCCCCC(=O)N[C@H](CO)[C@H](O)c1ccc([N+](=O)[O-])cc1	active
CCOC(=O)N1c2ccc(C(F)(F)F)cc2[C@@H](N(Cc2cc(C(F)(F)F)cc(C(F)(F)F)c2)C(=O)OC)C[C@H]1CC	inactive
COc1ccc(CCC(=O)Nc2nc3ccc(Cl)cc3s2)cc1OC	inactive
COc1nccc(-c2c(-c3ccc(F)cc3)ncn2C2CCC(O)CC2)n1 (configuration not stated)	inactive
CN[C@@H]1CN(c2ccc3c(=O)c(C(=O)O)cn(-c4nccs4)c3n2)C[C@@H]1OC	inactive
C=CC[N+]1([C@H]2C[C@H]3[C@@H]4CC[C@H]5C[C@H](O)[C@@H](N6CCOCC6)C[C@]5(C)[C@@H]4CC[C@]3(C)[C@H]2OC(C)=O)CCCC1	inactive
C[C@@]1(c2cc(-c3cncnc3)c(F)cc2F)CCSC(N)=N1	active
CO[C@H]1/C=C\O[C@@]2(C)Oc3c(C)c(O)c4c(O)c(c5c(nc6cc(C)ccn65)c4c3C2=O)NC(=O)C(C)=CC=C[C@H](C)[C@H](O)[C@@H](C)[C@@H](O)[C@@H](C)[C@H](OC(C)=O)[C@H]1C	active
CN(CC=CC#CC(C)(C)C)Cc1cccc2ccccc12	inactive
OC[C@H]1O[C@@H](Oc2ccc(O)cc2)[C@H](O)[C@@H](O)[C@H]1O	inactive

---

viability reference
assay: Quantitative High-Throughput drug screen in 47 multiple myeloma cell lines against the NCATS MIPE library collection: SKMM1_PLB cell viability assay (AID 1919863); conditions: SKMM1 myeloma viability, CellTiter-Glo ATP, 48 h; stronger effect = lower value; also: nearly all actives have a fitted effect of over 35% in size
Records with an inconclusive call do not appear.
Recorded Metric: viability (%)

Molecule	Recorded Metric	U	Value
CC[C@H](C)C(=O)O[C@H]1C[C@H](O)C=C2C=C[C@H](C)[C@H](CC[C@@H](O)C[C@@H](O)CC(=O)O)[C@H]21	viability	%	102
CNC(=O)[C@H](CC1=CN=C2C=CCC=C12)NC(=O)[C@@H](CC(=O)NO)CC(C)C	viability	%	109
Cc1cc(-c2ncc(CC(=O)Nc3ccc(-c4cnccn4)cn3)cc2C)ccn1	viability	%	117
CC1=C(C(=O)Nc2cc3cn[nH]c3cc2F)C(c2ccc(C(F)(F)F)cc2)CC(=O)N1 (stereo not drawn)	viability	%	160
O=C1C(CCC(O)c2ccc(F)cc2)C(c2ccc(O)cc2)N1c1ccc(F)cc1 (stereo not drawn)	viability	%	99.3
COc1cc(C=CC(=O)O)ccc1O	viability	%	124
CCCCOCCOc1nc(-c2ccc(C(=O)O)c(F)c2)sc1C	viability	%	118
COc1ccc2c(c1)CC[C@H]1[C@@H]2CC[C@]2(C)[C@@H](NCCCCCCN3C(=O)C=CC3=O)CC[C@H]12	viability	%	134
CN(C)c1nc(Cc2ccc(NC(=O)c3ccc(C(F)(F)F)cc3)cc2)nc(N(C)C)c1CC(=O)O	viability	%	127
COc1ccc(-c2nc3ccc(C4=NNC(=O)CC4C)cc3[nH]2)cc1 (stereo not drawn)	viability	%	101
C[C@@H](O)[C@H]1C(=O)N2C(C(=O)OCOC(=O)C(C)(C)C)=C(SC3CN(C4=NCCS4)C3)[C@H](C)[C@H]12	viability	%	111
Nc1ccn([C@@H]2O[C@H](CO)[C@@H](O)[C@H]2O)c(=O)n1	viability	%	113
OC[C@H]1O[C@@H](O[C@H]2[C@@H](O)[C@@](O)(CO)O[C@@H]2CO)[C@H](O)[C@@H](O)[C@@H]1O	viability	%	96.6
NC[C@H]1O[C@H](O[C@@H]2[C@@H](O)[C@@H](O[C@H]3O[C@H](CO)[C@@H](O)[C@H](N)[C@@H]3O)[C@H](N)C[C@@H]2N)[C@H](O)[C@@H](O)[C@H]1O	viability	%	120
CN1CCC[C@H]1CCO[C@](C)(c1ccccc1)c1ccc(Cl)cc1	viability	%	84.5
O=C(O)C1=CC(O)C(O)[C@H](O)C1 (stereo partly drawn)	viability	%	118
CNC1[C@H](O)C(O[C@@H]2C(O)C(O[C@H]3O[C@H]([C@@H](C)NC)CC[C@H]3N)[C@@H](N)C[C@H]2N)OC[C@]1(C)O (stereo partly drawn)	viability	%	103
CC(C)(CO)[C@@H](O)C(=O)NCCC(=O)O	viability	%	102
COc1ccc(CCN(C)CCCOc2ccc(S(=O)(=O)c3[nH]c4ccccc4c3C(C)C)cc2)cc1OC	viability	%	110
Fc1ccc(C(c2ccc(F)cc2)N2CCN(CC=Cc3ccccc3)CC2)cc1	viability	%	107
CC[C@H](C=C[C@@H](C)[C@H]1CC[C@H]2[C@@H]3CC=C4C[C@@H](O)CC[C@]4(C)[C@@H]3CC[C@]12C)C(C)C	viability	%	119
CN(C)CCOc1cc(-c2cn[nH]c2)ccc1NC(=O)C1COc2ccccc2O1 (stereo not drawn)	viability	%	131
COc1nc(C)cnc1NS(=O)(=O)c1cccnc1-c1ccc(-c2nnco2)cc1	viability	%	126
COc1ccc(-c2cc3nccn3c(Nc3ncccc3C(N)=O)n2)cc1OC	viability	%	103
Cc1cnc(-c2cc(N3CCN(C(=O)CCS(C)(=O)=O)CC3)ncc2Cl)c(C)c1	viability	%	114
O=C(O)C1=CO[C@@H](O[C@@H]2O[C@H](CO)[C@H](O)[C@H](O)[C@H]2O)[C@@H]2C(CO)=CC[C@H]12	viability	%	118
COc1ccnc(CS(=O)c2nc3ccc(OC(F)F)cc3[nH]2)c1OC (stereo not drawn)	viability	%	150
O=c1[nH]c(=O)n([C@H]2C[C@@H](O)[C@@H](CO)O2)cc1I	viability	%	119

Hey, just so you know, these numbers are from PubChem BioAssay (NCATS).
